- Assay info: Phase 1 multiple ascending dose (MAD) study, intranasal, pharmacokinetics
- Set-up: species or system human
- Particulars: human, in vivo; 5 mg, Day 14, nominal time 0.500 h; read-out: Plasma Concentrations (ng/mL) Mean
- Description: A Phase 1, single-center, randomized, double-blind, placebo-controlled, sequential multiple ascending dose (MAD) study with 2 alternate dosing arms was conducted. […] In addition to the 4 MAD cohorts, there were 2 alternate dosing cohorts, each consisting of 1 day dosing. The first alternate dosing cohort assessed the effect of 2 sequential administrations of 20 mg (20 mg spray [100 μL of 200 mg/mL] in alternate nostrils); with a 30 minute interval between administrations. […]
Readout type: concentration at 0.5 h
Number first, unit second: that is the form wanted.

*Q* // concentration at 0.5 h lookup, key: Cc1cc(C[C@@H](NC(=O)N2CCC(c3cc4ccccc4[nH]c3=O)CC2)C(=O)N2CCN(C3CCN(C)CC3)CC2)cc2cn[nH]c12
*A* 8.08 ng/mL

----------
- Assay info: clinical
- Particulars: human, in vivo, inhaled or intranasal, 3 mg, t1/2 el (h) Median
Readout type: half-life

*Q* // half-life lookup, key: Cc1cc(C[C@@H](NC(=O)N2CCC(c3cc4ccccc4[nH]c3=O)CC2)C(=O)N2CCN(C3CCN(C)CC3)CC2)cc2cn[nH]c12
*A* 2.24 h

----------
- Assay info: clinical
- Particulars: human, in vivo, inhaled or intranasal, t1/2 el (h) Median
Readout type: half-life (h)
Answers are plain numbers, in h.

*Q* // half-life lookup, key: Cc1cc(C[C@@H](NC(=O)N2CCC(c3cc4ccccc4[nH]c3=O)CC2)C(=O)N2CCN(C3CCN(C)CC3)CC2)cc2cn[nH]c12
*A* 2.39

----------
- Assay info: clinical
- Particulars: human, in vivo, inhaled or intranasal, 1 mg, AUC[0-inf] (ng · h/mL) GM
Readout type: AUC(0-inf)
Number first, unit second: that is the form wanted.

*Q* // AUC(0-inf) lookup, key: Cc1cc(C[C@@H](NC(=O)N2CCC(c3cc4ccccc4[nH]c3=O)CC2)C(=O)N2CCN(C3CCN(C)CC3)CC2)cc2cn[nH]c12
*A* 3.5 ng·h/mL

----------
- Assay info: logD of drug substance
- Format: physicochemical
- Particulars: mono-hydrochloride salt form
Readout type: logD
One number for each entry.

*Q* // logD lookup, key: Cc1cc(C[C@@H](NC(=O)N2CCC(c3cc4ccccc4[nH]c3=O)CC2)C(=O)N2CCN(C3CCN(C)CC3)CC2)cc2cn[nH]c12 [Zavegepant]
*A* 1.21

----------
- Assay info: Phase 1 multiple ascending dose (MAD) study, intranasal, pharmacokinetics
- Set-up: species or system human
- Particulars: human, in vivo, inhaled or intranasal, 20 mg, Cmax (ng/mL) geometric mean
Readout type: Cmax (ng/mL)
One number for each entry, in ng/mL.

*Q* // Cmax lookup, key: Cc1cc(C[C@@H](NC(=O)N2CCC(c3cc4ccccc4[nH]c3=O)CC2)C(=O)N2CCN(C3CCN(C)CC3)CC2)cc2cn[nH]c12 [Zavegepant]
*A* 34.7

----------
- Assay info: Phase 1 multiple ascending dose (MAD) study, intranasal, pharmacokinetics
- Set-up: species or system human
- Particulars: human, in vivo, inhaled or intranasal, 10 mg, Tmax (h) Mean
Readout type: Tmax (min)
One number for each entry, in min.

*Q* // Tmax lookup, key: Cc1cc(C[C@@H](NC(=O)N2CCC(c3cc4ccccc4[nH]c3=O)CC2)C(=O)N2CCN(C3CCN(C)CC3)CC2)cc2cn[nH]c12 [Zavegepant]
*A* 26.4
